biological target: Histone deacetylase 3 (Homo sapiens, UniProt O15379); experiment: Inhibition of recombinant human HDAC3 using fluorogenic substrate
Sequence (O15379 whole entry): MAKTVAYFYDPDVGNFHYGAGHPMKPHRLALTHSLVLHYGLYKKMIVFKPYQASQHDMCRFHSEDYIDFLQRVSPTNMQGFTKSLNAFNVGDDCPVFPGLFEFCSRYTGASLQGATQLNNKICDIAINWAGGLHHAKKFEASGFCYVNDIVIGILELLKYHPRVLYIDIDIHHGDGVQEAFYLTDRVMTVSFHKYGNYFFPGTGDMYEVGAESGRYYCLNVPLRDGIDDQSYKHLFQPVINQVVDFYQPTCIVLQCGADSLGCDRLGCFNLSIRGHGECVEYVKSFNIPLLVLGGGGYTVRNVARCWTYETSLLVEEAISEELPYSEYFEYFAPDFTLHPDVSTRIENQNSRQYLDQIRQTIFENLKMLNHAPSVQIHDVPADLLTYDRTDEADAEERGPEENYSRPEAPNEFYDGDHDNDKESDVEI
measured_endpoint: IC50

## Input Please report the measured IC50 for CN(Cc1ccc(C(=O)NO)cc1[18F])CC12CC3CC(CC(C3)C1)C2 tested on Histone deacetylase 3 (Homo sapiens, UniProt O15379).
## Output > 10 µM
